Target: eIF-2-alpha kinase GCN2 (Homo sapiens)
Sequence (Q9P2K8 whole entry): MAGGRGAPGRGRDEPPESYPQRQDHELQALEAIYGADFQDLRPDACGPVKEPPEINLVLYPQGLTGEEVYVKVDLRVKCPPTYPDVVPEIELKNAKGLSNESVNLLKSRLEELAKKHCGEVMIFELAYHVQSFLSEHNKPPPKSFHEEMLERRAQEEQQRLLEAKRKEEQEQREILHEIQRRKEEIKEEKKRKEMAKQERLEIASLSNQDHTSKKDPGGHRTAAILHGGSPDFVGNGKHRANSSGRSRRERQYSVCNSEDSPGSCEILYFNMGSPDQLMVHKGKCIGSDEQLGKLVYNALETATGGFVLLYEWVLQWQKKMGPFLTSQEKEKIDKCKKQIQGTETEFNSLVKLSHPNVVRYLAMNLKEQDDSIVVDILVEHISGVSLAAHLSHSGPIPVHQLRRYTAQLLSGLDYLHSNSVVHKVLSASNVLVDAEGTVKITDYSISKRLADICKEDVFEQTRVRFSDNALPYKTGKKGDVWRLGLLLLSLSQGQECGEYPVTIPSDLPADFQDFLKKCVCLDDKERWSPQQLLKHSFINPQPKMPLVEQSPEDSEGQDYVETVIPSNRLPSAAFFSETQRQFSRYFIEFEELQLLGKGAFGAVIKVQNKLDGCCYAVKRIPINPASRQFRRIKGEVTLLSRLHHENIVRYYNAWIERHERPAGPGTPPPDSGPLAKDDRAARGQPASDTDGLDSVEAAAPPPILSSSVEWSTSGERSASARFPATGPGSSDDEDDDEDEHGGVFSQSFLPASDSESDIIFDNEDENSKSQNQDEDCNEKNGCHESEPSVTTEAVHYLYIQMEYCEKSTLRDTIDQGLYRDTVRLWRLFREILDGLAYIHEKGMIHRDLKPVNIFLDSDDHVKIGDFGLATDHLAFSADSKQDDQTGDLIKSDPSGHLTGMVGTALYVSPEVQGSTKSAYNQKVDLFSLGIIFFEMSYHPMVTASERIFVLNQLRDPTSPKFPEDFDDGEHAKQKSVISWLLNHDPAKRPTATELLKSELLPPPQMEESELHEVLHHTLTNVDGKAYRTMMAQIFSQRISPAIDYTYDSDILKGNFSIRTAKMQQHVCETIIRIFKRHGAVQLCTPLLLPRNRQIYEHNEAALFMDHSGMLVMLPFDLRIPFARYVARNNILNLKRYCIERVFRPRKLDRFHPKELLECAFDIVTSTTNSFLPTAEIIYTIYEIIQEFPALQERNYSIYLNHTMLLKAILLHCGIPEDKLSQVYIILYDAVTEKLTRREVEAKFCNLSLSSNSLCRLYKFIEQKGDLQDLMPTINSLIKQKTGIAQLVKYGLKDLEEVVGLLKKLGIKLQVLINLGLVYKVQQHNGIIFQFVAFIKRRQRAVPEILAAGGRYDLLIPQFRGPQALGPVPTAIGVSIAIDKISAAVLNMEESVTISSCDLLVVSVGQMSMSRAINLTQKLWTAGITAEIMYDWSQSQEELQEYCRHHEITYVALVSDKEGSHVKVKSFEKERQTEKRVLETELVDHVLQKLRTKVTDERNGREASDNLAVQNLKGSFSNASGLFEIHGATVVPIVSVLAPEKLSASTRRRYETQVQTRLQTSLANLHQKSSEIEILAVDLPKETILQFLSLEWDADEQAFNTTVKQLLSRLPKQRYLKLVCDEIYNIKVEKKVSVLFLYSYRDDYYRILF
Assay: Inhibition of GCN2-mediated elF2alpha phosphorylation in human U2OS cells after 2 hrs by immunocytochemistry
Type: cell-based
IC50 values, listed per item

Use these answered entries as a reference point.
# COMPOUND STRUCTURE, TESTED TARGET, IC50
rows = [
    ("CCn1ccc(Nc2ncc3c(nnn3-c3ccc(C(C)(C)OCCO)cc3)n2)n1", "eIF-2-alpha kinase GCN2 (Homo sapiens)", "0.3 µM"),
    ("O[C@H]1CC[C@H](n2ccc(Nc3ncc4c(nnn4-c4ccc(Cl)c(F)c4)n3)n2)CC1", "eIF-2-alpha kinase GCN2 (Homo sapiens)", "< 0.3 µM"),
]

Exercise: IC50 of `c1cc2cn[nH]c2cc1-n1nnc2nc(Nc3ccn(C4CCOCC4)n3)ncc21` on eIF-2-alpha kinase GCN2 (Homo sapiens)?
Solution: < 0.3 µM

Exercise: IC50 of `CCOc1ccc(-n2nnc3nc(Nc4ccn(CCCC5CCNCC5)n4)ncc32)cc1` on eIF-2-alpha kinase GCN2 (Homo sapiens)?
Solution: < 0.3 µM
